Where do the numbers come from? From patent US7893064B2.

# testedSystem: EGFR kinase (GST fusion of intracellular portion of EGFR, NM_005228) (Homo sapiens, UniProt P00533)
# Construct: The intracellular portion of EGFR started at nucleotide 2189 (corresponding to amino acid 667) and ended at the termination codon
# Sequence (P00533 669-1210 limits assumed): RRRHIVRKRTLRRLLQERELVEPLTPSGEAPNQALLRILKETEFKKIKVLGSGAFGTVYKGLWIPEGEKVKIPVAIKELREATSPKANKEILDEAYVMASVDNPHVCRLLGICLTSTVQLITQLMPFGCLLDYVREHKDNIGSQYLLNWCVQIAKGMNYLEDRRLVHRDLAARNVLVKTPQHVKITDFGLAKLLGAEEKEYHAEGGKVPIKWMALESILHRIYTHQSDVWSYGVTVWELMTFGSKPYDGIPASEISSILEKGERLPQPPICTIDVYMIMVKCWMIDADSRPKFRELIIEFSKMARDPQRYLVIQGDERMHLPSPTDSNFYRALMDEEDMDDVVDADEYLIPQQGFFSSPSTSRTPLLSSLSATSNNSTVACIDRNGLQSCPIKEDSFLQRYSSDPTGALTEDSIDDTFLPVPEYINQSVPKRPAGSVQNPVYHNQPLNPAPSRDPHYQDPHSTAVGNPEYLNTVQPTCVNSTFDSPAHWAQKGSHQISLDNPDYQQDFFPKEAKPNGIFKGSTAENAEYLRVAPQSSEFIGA
# testMethodNotes: EGFR Kinase Assay
# runConditions: GSTEGFR, ATP 5 μM, biotinylated polyGluTyr, 33P Flashplate; read-out: EGFR Inhibition (%) IC50
# Procedure: The portion was PCR amplified with primers that added the lambda attB sequences to each end, recombined into an entry vector, then into a GST destination vector (as described in Gateway Technologies Manual by Invitrogen Corporation, Carlsbad, Calif.). The destination vector was recombined in the DH10BAC strain of bacteria to produce a bacmid. […] The plates were incubated at 30° C. for 1 hr with shaking. […] The plates were then sealed and read on the TopCount scintillation counter. […]
Each entry below carries its recorded pIC50.
Expect pIC50 as a plain number equal to -log10 of the molar concentration.

Answered cases to consult:
COC[C@@H]1CCCN1N=Cc1c(N)ncnc1Nc1ccc2c(cnn2Cc2cccc(F)c2)c1	7.58
COC[C@H]1CCCN1N=Cc1c(N)ncnc1Nc1ccc2c(cnn2Cc2cccc(F)c2)c1	7.51
CN1CCN(N=Cc2c(N)ncnc2Nc2ccc3c(cnn3Cc3cccc(F)c3)c2)CC1	7.81
Nc1ncnc(Nc2ccc3c(cnn3Cc3cccc(F)c3)c2)c1C=NN1CCN(CCO)CC1	8.01
COc1ccc(NN=Cc2c(N)ncnc2Nc2ccc3c(cnn3Cc3cccc(F)c3)c2)cc1	7.31

Query :: GET /values?readout=pIC50&item= Nc1ncnc(Nc2ccc3c(cnn3Cc3cccc(F)c3)c2)c1C=NN1CCOCC1
Result :: 7.78

Query :: How about this compound: CN(C)/N=C/c1c(N)ncnc1Nc1ccc2c(cnn2Cc2cccc(F)c2)c1
Result :: 8.09

Query :: How about this compound: Nc1ncnc(Nc2ccc3c(cnn3Cc3cccc(F)c3)c2)c1C=NNCC(F)(F)F
Result :: 7.28

Query :: How about this compound: CNN=Cc1c(N)ncnc1Nc1ccc2c(cnn2Cc2cccc(F)c2)c1
Result :: 7.91

* * *

# testedSystem: HER2 (GST-HIS6-Thrombin fusion, amino acids 679 to 1255 of HER-2) (Homo sapiens)
# Construct: GST (N); HIS6 (N); thrombin cleavage site (N)
# Sequence (P04626 679-1255): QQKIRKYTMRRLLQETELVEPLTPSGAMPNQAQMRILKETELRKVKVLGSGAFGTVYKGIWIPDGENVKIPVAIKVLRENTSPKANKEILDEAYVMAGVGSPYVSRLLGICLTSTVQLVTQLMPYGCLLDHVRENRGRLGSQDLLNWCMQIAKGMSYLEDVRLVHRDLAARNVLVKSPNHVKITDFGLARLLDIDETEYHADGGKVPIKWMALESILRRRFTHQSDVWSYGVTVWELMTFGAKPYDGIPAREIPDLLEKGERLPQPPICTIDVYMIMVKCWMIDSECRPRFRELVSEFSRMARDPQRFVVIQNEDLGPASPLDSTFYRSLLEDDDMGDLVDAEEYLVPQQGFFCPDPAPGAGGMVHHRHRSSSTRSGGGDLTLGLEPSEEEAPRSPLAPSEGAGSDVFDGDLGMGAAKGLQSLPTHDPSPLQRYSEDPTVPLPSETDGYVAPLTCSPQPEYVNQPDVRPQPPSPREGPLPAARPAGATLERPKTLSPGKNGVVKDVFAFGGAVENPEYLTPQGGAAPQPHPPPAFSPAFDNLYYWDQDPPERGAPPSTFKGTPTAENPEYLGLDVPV
# testMethodNotes: HER2 Screening Assay
# runConditions: 10 μM ATP, biotin-poly(GT) 4:1, 33P FlashPlate
resultType: IC50 (nM)
Number in nM, nothing else.

COC[C@@H]1CCCN1N=Cc1c(N)ncnc1Nc1ccc2c(cnn2Cc2cccc(F)c2)c1	38.8

Query :: Find IC50 (HER2 (GST-HIS6-Thrombin fusion, amino acids 679 to 1255 of HER-2) (Homo sapiens)) for the entry CN1CCN(N=Cc2c(N)ncnc2Nc2ccc3c(cnn3Cc3cccc(F)c3)c2)CC1
Result :: 8.4

Query :: How about this molecule: Nc1ncnc(Nc2ccc3c(cnn3Cc3cccc(F)c3)c2)c1C=NN1CCOCC1
Result :: 6.6

Query :: How about this molecule: Nc1ncnc(Nc2ccc3c(cnn3Cc3cccc(F)c3)c2)c1C=NNCC(F)(F)F
Result :: 19.8

Query :: How about this molecule: Nc1ncnc(Nc2ccc3c(cnn3Cc3cccc(F)c3)c2)c1C=NN1CCCCC1
Result :: 18.3

Query :: How about this molecule: COc1ccc(NN=Cc2c(N)ncnc2Nc2ccc3c(cnn3Cc3cccc(F)c3)c2)cc1
Result :: 118

Query :: How about this molecule: COC[C@H]1CCCN1N=Cc1c(N)ncnc1Nc1ccc2c(cnn2Cc2cccc(F)c2)c1
Result :: 72.2

Query :: How about this molecule: CN(C)/N=C/c1c(N)ncnc1Nc1ccc2c(cnn2Cc2cccc(F)c2)c1
Result :: 2.4

Query :: How about this molecule: Nc1ncnc(Nc2ccc3c(cnn3Cc3cccc(F)c3)c2)c1C=NN1CCN(CCO)CC1
Result :: 8.37

Query :: How about this molecule: CNN=Cc1c(N)ncnc1Nc1ccc2c(cnn2Cc2cccc(F)c2)c1
Result :: 83.6

* * *

Each entry below carries its recorded IC50.
# Tested on: SKBR3 breast carcinoma cells
# testMethodNotes: Cell Proliferation Inhibition Assay (14C-thymidine incorporation), SK-BR-3
# Assay type: cell-based
# runConditions: Homo sapiens, SK-BR-3 cells
Number in nM, nothing else.

CN(C)/N=C/c1c(N)ncnc1Nc1ccc2c(cnn2Cc2cccc(F)c2)c1	148
Nc1ncnc(Nc2ccc3c(cnn3Cc3cccc(F)c3)c2)c1C=NN1CCN(CCO)CC1	58.5
Nc1ncnc(Nc2ccc3c(cnn3Cc3cccc(F)c3)c2)c1C=NN1CCOCC1	122

Query :: GET /values?readout=IC50&item= Nc1ncnc(Nc2ccc3c(cnn3Cc3cccc(F)c3)c2)c1C=NN1CCCCC1
Result :: 691
